Molecular target: B-Raf (V600E)-kinase (Homo sapiens (Human), UniProt P15056, V600E)
Sequence (P15056 whole entry V600E): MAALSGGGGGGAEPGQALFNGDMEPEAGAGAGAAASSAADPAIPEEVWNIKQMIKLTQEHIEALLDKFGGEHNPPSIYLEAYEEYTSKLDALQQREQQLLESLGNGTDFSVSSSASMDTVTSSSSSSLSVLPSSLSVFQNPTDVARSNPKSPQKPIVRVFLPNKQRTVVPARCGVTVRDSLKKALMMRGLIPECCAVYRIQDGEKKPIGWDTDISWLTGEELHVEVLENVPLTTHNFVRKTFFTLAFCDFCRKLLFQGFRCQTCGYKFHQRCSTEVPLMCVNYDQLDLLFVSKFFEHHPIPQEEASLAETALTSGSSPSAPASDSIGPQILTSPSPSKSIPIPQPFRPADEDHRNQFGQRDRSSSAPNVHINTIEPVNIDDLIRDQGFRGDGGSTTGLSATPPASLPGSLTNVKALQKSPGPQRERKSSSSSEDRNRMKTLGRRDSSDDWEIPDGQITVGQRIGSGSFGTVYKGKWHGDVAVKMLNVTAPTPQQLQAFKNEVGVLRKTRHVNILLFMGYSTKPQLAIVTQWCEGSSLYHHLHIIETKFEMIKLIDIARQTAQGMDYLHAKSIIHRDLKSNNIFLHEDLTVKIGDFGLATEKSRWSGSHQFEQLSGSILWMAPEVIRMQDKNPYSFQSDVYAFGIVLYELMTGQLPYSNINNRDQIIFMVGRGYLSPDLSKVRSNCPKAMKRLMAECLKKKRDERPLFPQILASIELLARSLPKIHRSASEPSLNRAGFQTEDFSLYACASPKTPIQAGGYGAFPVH
Test: Kinase test B-RAF (V600E)
Assay type: biochemical
Conditions: B-RAF (V600E) kinase test, 250 μM ATP
pIC50: −log10 of the molar value.
measurementKind: pIC50

Example molecules with recorded pIC50:
[
  {
    "molecule": "Cc1ccc(C(=O)NC2CCCCC2)cc1Nc1ncnc2cnc(N(C)CCN(C)C)nc12",
    "pIC50": "< 5.00"
  },
  {
    "molecule": "Cc1ccc(C(=O)NCC2CCOC2)cc1Nc1ncnc2cnc(N(C)CCN(C)C)nc12 (stereo not shown)",
    "pIC50": "< 4.82"
  },
  {
    "molecule": "CN1CCCN(c2ncc3ncnc(Nc4cc(C(=O)Nc5cc(C(C)(C)C)on5)ccc4F)c3n2)CC1",
    "pIC50": "> 9.00"
  }
]

Pending molecule:
Query :: Quickly give me recorded pIC50 for Cc1ccc(NC(=O)c2cccc(C(C)(C)C#N)c2)cc1Nc1ncnc2cnc(NC3CCOC3)nc12 (stereo not shown) [IV-30]
Result :: > 9.00
